Reference source for all entries: patent US20040133357A1

molecular target: T1, purified recombinant human VEGF165 (human, UniProt P15692 27-191, glycosylated); test: SPR (BIAcore), purified scFv over VEGF immobilized on CM5 chip, 35 C
T1 construct: mature; Bought from Calbiochem; also called VEGF protein (Calbiochem); homodimeric VEGF protein
T1 sequence (P15692 other isoform, or with tags, fused parts or gaps limits assumed): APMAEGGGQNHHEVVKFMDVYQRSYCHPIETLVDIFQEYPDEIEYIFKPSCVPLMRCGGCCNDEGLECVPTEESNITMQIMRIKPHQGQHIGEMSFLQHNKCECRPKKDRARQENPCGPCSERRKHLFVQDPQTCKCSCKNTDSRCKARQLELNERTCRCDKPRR
observable: hAB1 Kd/Variant Kd
Enter a number only.

Inquiry: Query: hAB1 Kd/Variant Kd; subject: hAB7 (scFv, Single chain format; not shown: HA-His6 tag at C-terminus) scFv: EVQLVQSGGGVVQPGGSLRLSCAASGYTFTNYGMNWVRQAPGKGLEWVGWINTYTGEPTYAADFKRRFTFSLDTSKSTAYLQMNSLRAEDTAVYYCAKYPYYYGRSHWYFDVWGQGTLVTVSSGGGGSGGGGSGGGGSDIQMTQSPSSLSASVGDRVTITCSASQDISNYLNWYQQKPGKAPKVLIYFTSSLHSGVPSRFSGSGSGTDFTLTISSLQPEDFATYYCQQYSTVPWTFGQGTKVEIK
Reply text: 37.6

Others:
Inquiry: hAB1 Kd/Variant Kd for hAB36 (scFv, Single chain format; not shown: HA-His6 tag at C-terminus) scFv: EVQLVQSGGGVVQPGGSLRLSCAASGYDLSHYGLNWIRQAPGKGPEWVGWINTYTGEPTYAPDFTRRVTFSLDTSKSTAYLQLNSLRAEDTAVYYCAKYPYYYGRSHWYFDVWGQGTLVTVSSGGGGSGGGGSGGGGSDIVMTQSPSTLSASPGERATITCNASQSIGSYLAWYQQKPGQAPKVLIYGASNLASGVPSRFSGSRSGTDFTLTISSLQPEDFAVYYCQQYNSTPWTFGGGTKLEIK ?
Reply text: 59.1

Inquiry: Field request: hAB1 Kd/Variant Kd | item: hAB15 (scFv, Single chain format; not shown: HA-His6 tag at C-terminus) scFv: EVQLVQSGGGVVQPGGSLRLSCAASGYTFTNYGMNWIRQAPGKGLEWVGWINTYTGEPTYAADFKRRVTFSLDTSKSTAYLQLNSLRAEDTAVYYCAKYPYYYGRSHWYFDVWGQGTLVTVSSGGGGSGGGGSGGGGSDIVMTQSPSTLSASPGERATITCHASQSISTYLAWYQQKPGQAPRVLIYGASNLASGVPNRFSGSGSGTDFTLTISSLQPEDFAVYYCQQYNSAPWTFGGGTKVEIK
Reply text: 11.2
